Where do these numbers come from? They come from ChEMBL document CHEMBL1201862.

Kindly supply the reported IC50 values for the records listed here.
- Target Or System: Fatty acid synthase (Homo sapiens)
- Sequence (P49327 whole entry): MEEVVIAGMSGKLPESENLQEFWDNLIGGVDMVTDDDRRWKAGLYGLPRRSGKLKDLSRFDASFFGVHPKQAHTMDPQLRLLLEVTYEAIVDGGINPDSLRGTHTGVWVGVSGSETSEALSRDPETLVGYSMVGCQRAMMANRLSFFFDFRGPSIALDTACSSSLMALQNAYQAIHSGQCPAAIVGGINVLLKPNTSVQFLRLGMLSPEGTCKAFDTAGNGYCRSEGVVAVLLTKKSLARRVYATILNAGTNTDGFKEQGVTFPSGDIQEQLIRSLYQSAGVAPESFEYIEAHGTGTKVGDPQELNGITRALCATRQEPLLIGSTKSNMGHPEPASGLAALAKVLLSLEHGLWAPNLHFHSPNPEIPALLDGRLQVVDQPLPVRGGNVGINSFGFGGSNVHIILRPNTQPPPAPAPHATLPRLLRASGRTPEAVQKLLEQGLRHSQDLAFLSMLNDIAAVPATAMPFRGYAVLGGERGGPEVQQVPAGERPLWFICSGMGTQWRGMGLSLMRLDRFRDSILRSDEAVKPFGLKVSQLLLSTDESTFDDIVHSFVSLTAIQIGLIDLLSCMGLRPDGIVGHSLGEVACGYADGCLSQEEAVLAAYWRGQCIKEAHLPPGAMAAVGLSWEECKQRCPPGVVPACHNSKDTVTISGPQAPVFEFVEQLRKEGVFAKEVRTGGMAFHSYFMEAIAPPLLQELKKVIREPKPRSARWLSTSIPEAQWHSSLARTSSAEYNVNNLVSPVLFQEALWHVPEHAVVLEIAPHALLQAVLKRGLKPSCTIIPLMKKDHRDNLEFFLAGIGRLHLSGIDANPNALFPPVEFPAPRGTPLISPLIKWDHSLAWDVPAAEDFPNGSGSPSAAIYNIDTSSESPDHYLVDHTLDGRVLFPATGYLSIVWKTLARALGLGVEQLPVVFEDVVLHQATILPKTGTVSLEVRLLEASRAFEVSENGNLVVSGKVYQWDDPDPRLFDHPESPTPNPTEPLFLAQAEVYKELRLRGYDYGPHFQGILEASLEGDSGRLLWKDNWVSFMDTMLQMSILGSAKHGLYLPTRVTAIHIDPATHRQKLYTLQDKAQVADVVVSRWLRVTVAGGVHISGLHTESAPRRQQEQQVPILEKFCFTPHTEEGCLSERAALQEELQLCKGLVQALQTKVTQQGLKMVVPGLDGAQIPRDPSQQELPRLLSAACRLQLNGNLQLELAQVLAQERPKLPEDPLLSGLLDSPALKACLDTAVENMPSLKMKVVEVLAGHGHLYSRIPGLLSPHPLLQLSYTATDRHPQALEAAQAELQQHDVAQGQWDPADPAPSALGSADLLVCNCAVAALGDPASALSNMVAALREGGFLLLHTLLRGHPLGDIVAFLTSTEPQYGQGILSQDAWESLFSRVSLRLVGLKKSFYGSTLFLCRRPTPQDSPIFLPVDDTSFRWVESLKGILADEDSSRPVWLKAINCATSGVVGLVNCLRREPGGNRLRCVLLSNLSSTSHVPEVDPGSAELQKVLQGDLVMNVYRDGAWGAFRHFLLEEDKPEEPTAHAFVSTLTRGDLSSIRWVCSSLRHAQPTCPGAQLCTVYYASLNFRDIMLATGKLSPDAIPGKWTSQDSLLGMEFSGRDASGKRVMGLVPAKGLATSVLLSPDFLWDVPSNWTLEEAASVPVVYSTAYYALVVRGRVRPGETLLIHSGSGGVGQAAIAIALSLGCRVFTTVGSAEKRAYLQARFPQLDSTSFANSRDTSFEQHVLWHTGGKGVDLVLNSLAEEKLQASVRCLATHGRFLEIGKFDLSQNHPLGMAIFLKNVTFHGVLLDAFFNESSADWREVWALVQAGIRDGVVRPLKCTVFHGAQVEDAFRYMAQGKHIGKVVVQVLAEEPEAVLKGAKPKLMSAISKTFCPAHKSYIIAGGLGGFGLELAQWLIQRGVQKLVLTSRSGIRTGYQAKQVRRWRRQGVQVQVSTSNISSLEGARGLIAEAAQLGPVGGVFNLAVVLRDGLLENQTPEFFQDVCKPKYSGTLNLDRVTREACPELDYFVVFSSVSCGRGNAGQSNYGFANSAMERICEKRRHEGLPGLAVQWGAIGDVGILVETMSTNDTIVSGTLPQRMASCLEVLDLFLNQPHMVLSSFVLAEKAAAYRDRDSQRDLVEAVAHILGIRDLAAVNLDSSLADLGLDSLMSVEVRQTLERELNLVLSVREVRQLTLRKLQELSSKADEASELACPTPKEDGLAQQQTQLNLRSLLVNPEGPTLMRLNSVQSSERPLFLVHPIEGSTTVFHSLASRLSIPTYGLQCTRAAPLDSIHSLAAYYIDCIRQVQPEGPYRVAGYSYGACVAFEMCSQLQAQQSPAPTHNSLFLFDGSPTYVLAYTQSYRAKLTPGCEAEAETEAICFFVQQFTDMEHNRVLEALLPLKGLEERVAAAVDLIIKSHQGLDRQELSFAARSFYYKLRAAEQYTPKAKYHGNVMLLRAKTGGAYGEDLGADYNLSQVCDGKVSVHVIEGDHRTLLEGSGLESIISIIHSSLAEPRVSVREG
- Assay Summary: inhibition of human FAS-TE enzyme activity – biochemical, kinetic fluorescence intensity, dose response (AID 624326);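 note: rate of fluorescence rise from hydrolysis of a fluorogenic O-methyl fluorescein ester substrate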
- Assay type: functional
The source made the active and inactive calls.

>  <Compound>
C[C@H](CO)N1C[C@H](C)[C@@H](CN(C)C(=O)NC2CCCCC2)Oc2c(NC(=O)Nc3ccc4c(c3)OCO4)cccc2C1=O

>  <IC50>
4.32 µM (active)

$$$$

// input: 2 compounds below; output: IC50 for each
1. O=C(O)CCCNc1c(C(=O)Nc2ccc(Cl)cc2)cc([N+](=O)[O-])cc1[N+](=O)[O-]
2. O=C(NCCCCc1ccccc1)C1CC(c2ccc([N+](=O)[O-])cc2)=NO1 (stereo unspecified)

Result string:
1: 4.79 µM (active); 2: 14.1 µM (active)

====

- Target Or System: Heat shock factor protein 1 (Mus musculus, UniProt P38532)
- Sequence (P38532 whole entry): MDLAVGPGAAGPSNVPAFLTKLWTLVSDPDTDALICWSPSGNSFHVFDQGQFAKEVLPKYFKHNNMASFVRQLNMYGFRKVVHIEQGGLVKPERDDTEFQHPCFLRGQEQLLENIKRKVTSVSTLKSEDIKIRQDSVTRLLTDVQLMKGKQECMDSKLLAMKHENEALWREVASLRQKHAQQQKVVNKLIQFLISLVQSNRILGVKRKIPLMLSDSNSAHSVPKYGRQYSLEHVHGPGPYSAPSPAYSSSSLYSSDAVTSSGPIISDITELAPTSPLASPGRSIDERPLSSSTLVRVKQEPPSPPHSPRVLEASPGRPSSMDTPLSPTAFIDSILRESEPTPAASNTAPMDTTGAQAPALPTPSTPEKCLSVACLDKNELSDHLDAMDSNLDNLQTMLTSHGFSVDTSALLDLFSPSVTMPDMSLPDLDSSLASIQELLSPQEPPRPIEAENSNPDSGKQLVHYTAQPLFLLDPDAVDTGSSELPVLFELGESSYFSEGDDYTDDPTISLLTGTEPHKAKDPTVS
- Assay Summary: enhancement of HSF1-driven luciferase signal – cell-based, NIH3T3, luminescence, dose retest, confirmation (AID 435004);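 note: stress induced by proteasome inhibitor MG132 added 30 min after compound; luciferase reporter driven by HSF1 response element in NIH3T3 cells; actives raise luminescence as potentiators of the MG132 stress response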
- Assay type: functional
Activity calls are given as the source filed them.
// classify into YES (active), NO (inactive)

>  <Molecule>
COc1ccc2cc(/C=C/C(=O)N3CCN(CC(=O)N4CCCCCC4)CC3)ccc2c1

>  <Label Class>
NO

$$$$
>  <Molecule>
CC1(c2ccccc2)CC2CC(c3ccccc3)N1O2 (stereo not drawn)

>  <Label Class>
NO

$$$$
>  <Molecule>
O=C1C2CC=CCC2C(=O)N1c1ccc(NCCc2ccccc2)c([N+](=O)[O-])c1 (stereo not drawn)

>  <Label Class>
YES

$$$$
>  <Molecule>
COc1ccc(-c2c(C)nn3c(NC4CCCC4)cc(C)nc23)cc1OC

>  <Label Class>
NO

$$$$

Query string: Kindly provide the recorded test outcome for the following molecule: Cc1ccc(-c2nn(-c3cc(Cl)ccc3[N+](=O)[O-])c(=O)c3ccccc23)cc1
Result string: NO

Query string: Kindly provide the recorded test outcome for the following molecule: Clc1ccc(-n2c(SC/C=C/c3ccccc3)nnc2-c2cccnc2)cc1
Result string: YES

Query string: Kindly provide the recorded test outcome for the following molecule: COc1ccccc1/C=C/C1=NC(=C\C=C/c2ccccc2)/C(=O)O1
Result string: NO

====

- Assay Summary: Luminescence Cell-Based Dose Confirmation HTS to Identify Inhibitors of Platelet Dense Granule Release. [Related pubchem assays: 1663 (Primary HTS), 1678 (Summary of Project)]
- Type: functional
Calls of active or inactive are those of the source.
Kindly supply the reported EC50 values for the records listed here.

Past entries and their recorded results:
>  <Sample Smiles>
CCNC(=O)[C@H]1O[C@@H](n2cnc3c(N)ncnc32)[C@H](O)[C@@H]1O

>  <EC50>
< 0.088 µM (active)

$$$$
>  <Sample Smiles>
COC(=O)c1ccc(/C=C/c2nc(O)c3ccccc3n2)cc1

>  <EC50>
7.02 µM (active)

$$$$
>  <Sample Smiles>
COc1cc2c(cc1OC)-c1cc(Nc3ccc(N(C)C)cc3)nc(=O)n1CC2

>  <EC50>
4.83 µM (active)

$$$$

Query string: Item under review: Oc1cccc(-c2nc3ccccc3s2)c1 . Reported EC50?
Result string: 22.2 µM (active)

====

- Target Or System: High affinity choline transporter 1 (Homo sapiens)
- Sequence (Q9GZV3 whole entry): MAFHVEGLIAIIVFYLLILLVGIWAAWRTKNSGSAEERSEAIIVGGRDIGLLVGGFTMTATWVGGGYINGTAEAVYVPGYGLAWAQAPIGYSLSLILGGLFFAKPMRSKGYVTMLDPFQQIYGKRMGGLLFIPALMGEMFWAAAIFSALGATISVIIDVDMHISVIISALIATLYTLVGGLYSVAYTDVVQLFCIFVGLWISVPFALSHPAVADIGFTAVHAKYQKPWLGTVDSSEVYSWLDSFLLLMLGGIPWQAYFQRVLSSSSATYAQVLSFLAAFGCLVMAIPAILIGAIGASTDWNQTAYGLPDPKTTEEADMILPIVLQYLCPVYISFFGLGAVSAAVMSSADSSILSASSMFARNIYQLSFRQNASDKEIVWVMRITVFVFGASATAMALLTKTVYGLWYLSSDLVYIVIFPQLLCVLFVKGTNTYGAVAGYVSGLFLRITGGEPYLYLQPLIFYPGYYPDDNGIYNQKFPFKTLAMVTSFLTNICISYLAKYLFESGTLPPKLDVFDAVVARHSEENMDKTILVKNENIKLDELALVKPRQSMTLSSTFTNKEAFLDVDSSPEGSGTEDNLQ
- Assay Summary: human choline transporter blockers, potency – cell-based, 5-point CRC, membrane potential dye, dose response (AID 504840)
- Assay type: functional
Activity calls are given as the source filed them.
Kindly supply the reported IC50 values for the records listed here.

>  <Molecule>
COc1ccc2ncc(S(=O)(=O)c3ccccc3)c(N3CCC4(CC3)OCCO4)c2c1

>  <IC50>
14.5 µM (active)

$$$$
>  <Molecule>
CC(=O)c1ccc(N2CCN(C(=O)C3CCCN(c4ncnc5c4nc4n5CCCCC4)C3)CC2)cc1 (centres undefined)

>  <IC50>
18.2 µM (active)

$$$$
>  <Molecule>
COc1ccc(C)cc1NC(=O)c1ccccc1NS(=O)(=O)c1ccc(Cl)s1

>  <IC50>
5.82 µM (active)

$$$$

Query string: Item under review: O=C(C1CCCN(c2ncnc3c2nc2n3CCCCC2)C1)N1CCN(c2ccc(F)cc2)CC1 (centres undefined) . Reported IC50?
Result string: 20.9 µM (active)

====

- Target Or System: Paired box protein Pax-8 (Homo sapiens)
- Sequence (Q06710 whole entry): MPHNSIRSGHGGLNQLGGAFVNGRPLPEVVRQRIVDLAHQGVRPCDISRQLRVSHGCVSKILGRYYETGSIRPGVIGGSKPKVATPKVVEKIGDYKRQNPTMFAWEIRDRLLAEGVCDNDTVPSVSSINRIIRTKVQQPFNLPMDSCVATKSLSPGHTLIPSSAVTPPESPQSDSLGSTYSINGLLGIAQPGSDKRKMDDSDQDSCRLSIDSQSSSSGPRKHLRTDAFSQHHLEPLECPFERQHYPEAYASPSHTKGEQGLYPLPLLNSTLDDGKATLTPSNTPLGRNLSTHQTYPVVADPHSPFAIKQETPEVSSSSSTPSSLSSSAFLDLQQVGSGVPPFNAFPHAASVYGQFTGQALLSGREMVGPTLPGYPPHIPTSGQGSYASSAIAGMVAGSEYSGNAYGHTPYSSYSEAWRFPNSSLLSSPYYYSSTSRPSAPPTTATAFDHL
- Assay Summary: PAX8 transcriptional activity inhibition in RMG-I – RMG-I cells, luciferase, cherry-pick, dose response (AID 687027);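 note: luciferase reporter driven by Pax8 target thyroperoxidase promoter measured by SteadyGlo luminescence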
- Type: functional, cell-based
Active and inactive are the calls of the source.
Value Kind: AC50

Past entries and their recorded results:
>  <Molecule>
CCOc1ccc(C(=O)C(CN2CCOCC2)c2ccccc2)cc1 (centres undefined)

>  <Value Observed>
1.96 µM (active)

$$$$
>  <Molecule>
CN1c2ccc(-c3ccccc3)cc2[C@@H]2[C@@H](CCN2C(=O)NC2CCCCC2)[C@@H]1CO

>  <Value Observed>
11.1 µM (active)

$$$$
>  <Molecule>
C[C@H]1CN([C@@H](C)CO)C(=O)c2c(c3ccccc3n2C)-c2ccccc2CO[C@@H]1CN(C)S(=O)(=O)c1ccsc1

>  <Value Observed>
3.6 µM (active)

$$$$

Kindly review the next molecule as well.
Query string: Item under review: N#C[C@@H]1[C@H](c2ccc(C#Cc3ccc(F)cc3)cc2)[C@@H](CO)N1C(=O)Nc1ccc(F)cc1 . Reported AC50?
Result string: 4.38 µM (active)

====

- Target Or System: Kappa-type opioid receptor (Homo sapiens)
- Sequence (P41145 whole entry): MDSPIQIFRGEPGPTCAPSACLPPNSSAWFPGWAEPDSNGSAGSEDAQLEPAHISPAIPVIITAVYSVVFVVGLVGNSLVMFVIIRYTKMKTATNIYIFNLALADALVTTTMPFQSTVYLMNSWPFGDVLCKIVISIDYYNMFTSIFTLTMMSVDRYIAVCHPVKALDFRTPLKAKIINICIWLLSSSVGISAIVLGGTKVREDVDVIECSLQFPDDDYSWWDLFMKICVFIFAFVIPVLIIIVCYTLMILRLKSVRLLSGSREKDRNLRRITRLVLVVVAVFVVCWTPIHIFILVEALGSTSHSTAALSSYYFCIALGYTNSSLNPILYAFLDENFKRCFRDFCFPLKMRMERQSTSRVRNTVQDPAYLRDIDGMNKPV
- Format: functional
Value Kind: pEC50
Answers are plain numbers, as −log10 of the molar value.

Query string: Item under review: Cc1ccccc1NC(=O)c1ccc(COc2ccc3c(C)cc(=O)oc3c2)cc1 . Reported pEC50?
Result string: 4.74

====

- Target Or System: Large T antigen (Simian virus 40, UniProt P03070);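 note: Confirmatory-stage PubChem screen for compounds that inhibit SV40 T antigen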
- Sequence (P03070 whole entry): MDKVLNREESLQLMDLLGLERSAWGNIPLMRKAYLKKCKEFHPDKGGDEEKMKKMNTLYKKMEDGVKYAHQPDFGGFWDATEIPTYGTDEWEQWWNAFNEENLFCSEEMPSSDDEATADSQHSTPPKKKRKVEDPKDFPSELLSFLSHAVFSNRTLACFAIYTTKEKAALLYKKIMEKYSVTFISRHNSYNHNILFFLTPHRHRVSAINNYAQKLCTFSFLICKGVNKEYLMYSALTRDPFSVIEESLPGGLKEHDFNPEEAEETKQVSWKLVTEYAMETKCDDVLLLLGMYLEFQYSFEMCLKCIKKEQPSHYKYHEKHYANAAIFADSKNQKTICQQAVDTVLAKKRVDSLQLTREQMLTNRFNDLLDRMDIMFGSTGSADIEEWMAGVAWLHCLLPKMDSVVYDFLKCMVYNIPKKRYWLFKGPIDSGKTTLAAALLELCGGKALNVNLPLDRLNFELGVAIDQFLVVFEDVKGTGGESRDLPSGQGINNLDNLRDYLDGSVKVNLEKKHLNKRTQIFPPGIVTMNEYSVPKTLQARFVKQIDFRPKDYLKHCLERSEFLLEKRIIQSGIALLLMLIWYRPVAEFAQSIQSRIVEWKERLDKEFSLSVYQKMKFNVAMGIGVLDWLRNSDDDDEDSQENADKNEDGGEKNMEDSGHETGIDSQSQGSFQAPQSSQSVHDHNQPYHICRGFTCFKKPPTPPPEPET
- Assay type: functional, Betapolyomavirus macacae
Calls of active or inactive are those of the source.
Kindly supply the reported IC50 values for the records listed here.

// input: 3 compounds below; output: IC50 for each
1. C/N=c1\scc(C)n1/N=C/c1ccc(O)cc1O
2. CN(C)c1ccc(/N=c2/sc3ccccc3n2C)cc1
3. N#Cc1c(O)nsc1Nc1ccccc1C(F)(F)F

Result string:
4.27 µM (active)
11.4 µM (active)
56.5 µM (active)

====

Kindly supply the reported IC50 values for the records listed here.
- Target Or System: UniProt:P31941
- Sequence (P31941 whole entry): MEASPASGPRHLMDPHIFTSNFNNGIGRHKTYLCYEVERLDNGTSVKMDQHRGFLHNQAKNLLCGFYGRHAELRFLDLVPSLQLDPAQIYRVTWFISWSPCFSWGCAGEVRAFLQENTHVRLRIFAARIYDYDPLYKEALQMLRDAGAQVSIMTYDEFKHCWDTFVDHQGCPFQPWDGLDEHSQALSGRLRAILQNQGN
- Assay Summary: Dose Response confirmation of small molecule APOBEC3A DNA Deaminase Inhibitors via a fluorescence-based single-stranded DNA deaminase assay. [Related pubchem assays (depositor defined):AID493011, AID493024]
- Format: functional
The source made the active and inactive calls.

>  <Compound>
C[n+]1cccc(C(=O)NCC2CCCO2)c1 (stereo not drawn)

>  <Value Observed>
2.55 µM (active)

$$$$
>  <Compound>
COc1ccc(NC(=O)C(=O)N2N=C3CCCCC3C2(O)C(F)(F)F)cc1 (stereo not drawn)

>  <Value Observed>
6.08 µM (active)

$$$$
>  <Compound>
Cc1c(NC(=O)c2cc(-n3cnnc3)ccc2Cl)cccc1-c1nc2ccccc2o1

>  <Value Observed>
2.56 µM (active)

$$$$
>  <Compound>
COCc1cc(C)nc(N2CCN(Cc3ccccc3)CC2)c1C#N

>  <Value Observed>
3.15 µM (active)

$$$$
>  <Compound>
O=C(CSC1=NCCS1)NC1CCCCC1

>  <Value Observed>
3.67 µM (active)

$$$$

// input: 3 compounds below; output: IC50 for each
1. Cn1c(Cc2ccccc2)nnc1SCCC(=O)Nc1ccccc1
2. Cn1cc(/C=N/NC(=O)c2cc3cc(Br)ccc3o2)c2ccccc21
3. CC(C)(C)c1ccc(NC(=O)C2=CN3CCS(=O)(=O)N=C3C=C2)cc1

Result string:
["2.03 µM (active)", "3.98 µM (active)", "5.24 µM (active)"]
